- Target Or System: Albumin (Bos taurus) (UniProt P02769)
- Sequence (P02769 whole entry, looked up): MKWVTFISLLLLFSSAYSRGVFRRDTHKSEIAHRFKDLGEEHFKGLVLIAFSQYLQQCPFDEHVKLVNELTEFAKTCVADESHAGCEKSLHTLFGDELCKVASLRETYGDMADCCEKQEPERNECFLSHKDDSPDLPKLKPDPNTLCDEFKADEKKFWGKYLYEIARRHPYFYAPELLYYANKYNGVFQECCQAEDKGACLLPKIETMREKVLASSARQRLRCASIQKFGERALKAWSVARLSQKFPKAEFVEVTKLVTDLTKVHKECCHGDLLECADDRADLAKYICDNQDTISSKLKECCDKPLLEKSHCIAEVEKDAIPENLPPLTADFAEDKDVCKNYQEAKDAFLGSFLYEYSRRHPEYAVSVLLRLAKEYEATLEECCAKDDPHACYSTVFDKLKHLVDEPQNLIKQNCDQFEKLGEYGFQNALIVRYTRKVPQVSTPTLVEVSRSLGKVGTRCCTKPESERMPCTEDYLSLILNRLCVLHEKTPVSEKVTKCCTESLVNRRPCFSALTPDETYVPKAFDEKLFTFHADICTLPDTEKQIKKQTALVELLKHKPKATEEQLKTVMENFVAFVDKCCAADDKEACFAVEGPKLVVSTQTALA
- Experiment Summary: bovine serum albumin binders on microarray, profiling panel, artefact control for SMM control protein annotation, biochemical, small-molecule microarray, Alexa647 label, 635/667 nm fluorescence (AID 1118);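 further: score merges 667 nm emission intensity and signal-to-noise per printed compound spot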
- Condition Notes: BSA-A647 binding, fluorescence 635 nm, higher = more signal
The entries below are paired with their reported composite z-score.
Readout Name: composite z-score

1) Cc1ccc(S[C@]2(C(=O)NC(C)C)CC(=O)N(C3Cc4ccccc4C3)[C@@H]2c2ccc(CO)cc2I)cc1 = -0.25
2) CN(C)CCCN1C(=O)[C@@]2(c3ccc([N+](=O)[O-])cc3)CC(=O)N(CC34CC5CC(CC(C5)C3)C4)[C@@H]2c2ccc(CO)cc21 = -0.348
3) CCCNC(=O)[C@@]1(c2ccc([N+](=O)[O-])cc2)CC(=O)N(C2CCCCC2)[C@@H]1c1ccc(CO)cc1I = 0.529
4) C=C[C@@H](C)[C@H](OC(=O)Nc1ccc(SC)cc1)c1ccc(OCCO)cc1 = -0.145
5) CCOC(=O)C[C@H]1[C@H](OC(=O)c2ccc(-c3ccccc3)cc2)[C@@H](NC(=O)c2ccc3ccccc3c2)c2cc(OCCCO)ccc2N1C(=O)c1ccc2ccccc2n1 = 0.587
6) NC(=O)NCC#Cc1ccc2c(c1)[C@]1(C(=O)N2)[C@H](c2ccc(O)cc2)N2[C@H](c3ccccc3)[C@H](c3ccccc3)OC(=O)[C@H]2[C@@H]1C(=O)Nc1nc2ccccc2s1 = 0.121
7) C=C(COC)/C(=C/C[C@@H](OC(=O)c1ccncc1)c1ccc(OCCO)cc1)c1cnc2ccccc2c1 = 0.646
8) C=CCOC(=O)[C@@H]1[C@H]2C(=O)O[C@H](c3ccccc3)[C@H](c3ccccc3)N2[C@H](c2ccc(OCCOC(=O)[C@H]3C[C@H]4C(=O)N[C@@H](CC(C)C)C(=O)N4[C@H]3c3ccc(O)cc3)cc2)[C@@]12C(=O)Nc1ccc(I)cc12 = -1.13
9) CC(C)CN1C(=O)[C@@]2(Cc3ccccc31)c1ccccc1C(=O)N(Cc1ccccc1C(F)(F)F)[C@H]2c1ccc(CO)cc1 = -0.139
10) CC(CO)N1C(=O)[C@@H]2C3C(=O)OCCC/C=C\[C@H]3OC23C=CCN(Cn2nnc4ccccc42)C(=O)[C@@H]13 (some centres undefined) = 0.717
11) CCCCC(CC)C(O)C1C=CC2C(=O)N(c3ccccc3)C(=O)C2N1Nc1ccc([N+](=O)[O-])cc1 (centres undefined) = 0.985
12) Cc1ccc(C(C)CC(O)C2C=CC3C(=O)N(c4ccccc4)C(=O)C3N2Nc2ccc(C(C)C)cc2)o1 (centres undefined) = 0.935
13) CC=CC(O)C1C=CC2C(=O)N(c3ccccc3)C(=O)C2N1Nc1ccccc1 (centres undefined) = 0.867
14) CCCN1C(=O)[C@]2(Cc3ccccc3)N=C(c3ccc(OCCCO)cc3)O[C@@H]2c2ccccc21 = 0.727

---

- Experiment Summary: E. coli DRC41 culture turbidity changes, primary screen, E. coli filamentation inducer project, strain DRC41, OD650, 48 h (AID 1152);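 further: E. coli MC1000 strain DRC41 lacking acrAB efflux pump and sulA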
- Condition Notes: E. coli DRC41 (acrAB sulA), higher = more signal, called active from +8 up or from −8 down
Active and inactive are the calls of the source.
Readout Name: z-score

1. CC=CC(O)C1C=CC2C(=O)N(c3ccccc3)C(=O)C2N1Nc1ccccc1 (stereo not drawn) = 0.509 (inactive)
2. CC(C)N1C(=O)[C@@]2(c3ccc([N+](=O)[O-])cc3)CC(=O)N(C3CCCCC3)[C@@H]2c2ccc(CO)cc21 = 0.0586 (inactive)
3. CN1C(=O)[C@@]2(CCS(=O)(=O)c3ccccc3)N=C(c3ccc(OCCCO)cc3)O[C@H]2c2ccccc21 = 0.583 (inactive)
4. COc1cc2c(cc1O)C(C)N(Cc1cc3c(cc1Br)OCO3)CC2 (stereo not drawn) = 1.2 (inactive)
5. COc1ccc(C#Cc2ccc3c(c2)[C@]2(C(=O)N3)[C@H](C(=O)N3CCc4cc(OC)c(OC)cc4C3)[C@H]3C(=O)O[C@H](c4ccccc4)[C@H](c4ccccc4)N3[C@@H]2c2ccc(O)cc2)cc1 = -0.658 (inactive)
6. CC(C)N1CC=CC23O[C@@H]4C=CCOC(=O)[C@@H]4[C@H]2C(=O)N(C(C)CO)[C@@H]3C1=O (stereo partly drawn) = -0.32 (inactive)
7. Cc1ccc(C(C)CC(O)C2C=CC3C(=O)N(c4ccccc4)C(=O)C3N2Nc2ccc(C(C)C)cc2)o1 (stereo not drawn) = -1.84 (inactive)
8. C=C(CCCC)/C(=C/C[C@@H](OC(C)=O)c1ccc(CO)o1)c1cc(C(=O)OC)ccc1OC = -0.132 (inactive)

---

- Target Or System: Albumin (Bos taurus)
- Experiment Summary: bovine serum albumin binders on microarray, profiling panel, artefact control for SMM control protein annotation, biochemical, small-molecule microarray, Alexa647 label, 635/667 nm fluorescence (AID 1118);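 further: score merges 667 nm emission intensity and signal-to-noise per printed compound spot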
- Condition Notes: BSA-A647 binding, fluorescence 635 nm, higher = more signal
// map composite z-score onto a label; ranges L: < 0.4; M: ≥ 0.4 and < 0.6; H: ≥ 0.6

1. O=C(N1CCCCC1)[C@@]1(Cc2ccccc2)COC(c2ccc(OCCCO)cc2)=N1 = H
2. CC[C@@H]1[C@H]2C3C(=O)N(CC)C(=O)C3CC(=O)[C@H]2[C@H](c2ccc(C)cc2)N1S(=O)(=O)c1ccc(C)cc1 (some centres undefined) = H
3. Cc1c(NC(=O)/C(C#N)=C/C=C/c2ccccc2[N+](=O)[O-])c(=O)n(-c2ccccc2)n1C = H
4. C=CCNC(=O)[C@H]1[C@@H]2C(=O)O[C@@H](c3ccccc3)[C@@H](c3ccccc3)N2[C@@H](c2ccccc2OCCO)[C@]12C(=O)N(C(=O)OCCOC)c1ccc(C#CC3=CCCCC3)cc12 = L
5. Cc1ccc(S[C@]2(C(=O)O)CC(=O)N(Cc3ccccc3Cl)[C@@H]2c2ccc(CO)cc2)cc1 = M
6. CC(C)CNC(=O)[C@@H]1c2ccccc2C(=O)N(Cc2cc(F)cc(C(F)(F)F)c2)[C@H]1c1ccc(CO)cc1 = L
7. CCCC=C(CCC)[C@@H](NP(=O)(c1ccccc1)c1ccccc1)c1ccc(C(F)(F)F)cc1 = L
8. O=C1C2C=CC(C(O)c3cc(C(F)(F)F)cc(C(F)(F)F)c3)N(Nc3ccc([N+](=O)[O-])cc3)C2C(=O)N1c1ccccc1 (centres undefined) = H
9. COc1ccc([Si](C)(C)[C@@H]2[C@@H](CCn3cc([C@H](O)c4ccccc4)nn3)O[C@]3(C(=O)N(Cc4ccc(N5CCOC5=O)cc4)c4ccccc43)[C@H]2C)cc1 = M
10. CCOC(=O)C[C@H]1[C@H](OC(=O)c2ccc(-c3ccccc3)cc2)[C@@H](NC(=O)c2ccc3ccccc3n2)c2cc(OCCCO)ccc2N1C(=O)c1ccccc1 = M
11. CCOC(=O)C[C@H]1[C@H](OC(=O)c2ccccc2-c2ccccc2)[C@@H](NC(=O)c2ccc3ccccc3n2)c2cc(OCCCO)ccc2N1C(=O)c1ccc2ccccc2n1 = L
12. C[C@]12C(=O)N(CCCCCCO)[C@@H]3C(=O)N(c4ccc(Cl)cc4)CC=CC31O[C@@H]1/C=C\CCCOC(=O)C12 (some centres undefined) = L

---

- Experiment Summary: inhibitors of hydroxyurea-induced Chk1 phosphorylation, primary screen, imaging, HeLa, phospho-Chk1 nuclear intensity (AID 1187); further: test concentration not given here
- Condition Notes: hydroxyurea-induced phospho-Chk1 immunofluorescence imaging, higher = more signal
Outcome: label 1 for z-score of at least 0.1; label 0 for anything lower.

1) O=C1O[C@@H](c2ccccc2)[C@@H](c2ccccc2)N2[C@@H](c3ccccc3OCCO)[C@]3(C(=O)Nc4ccc(C#CCCO)cc43)[C@@H](C(=O)Nc3nc4ccccc4s3)[C@H]12 = label 0
2) COCCOC(=O)N1C(=O)[C@@]2(c3cc(C#CC4(O)CCCCCC4)ccc31)[C@H](c1ccccc1OCCO)N1[C@H](c3ccccc3)[C@H](c3ccccc3)OC(=O)[C@H]1[C@@H]2C(N)=O = label 0
3) COCCOC(=O)N1C(=O)[C@@]2(c3cc(C#CC4(O)CCCCCC4)ccc31)[C@H](C(=O)N1CCCCCCC1)[C@H]1C(=O)O[C@H](c3ccccc3)[C@H](c3ccccc3)N1[C@@H]2c1ccc(OCCO)cc1 = label 1
4) CCCCN1CC=CC23O[C@@H]4C=CCOC(=O)[C@@H]4[C@H]2C(=O)N(C(C)CO)[C@@H]3C1=O (stereo partly drawn) = label 0
5) CC(C)c1ccc(NN2C(C(O)c3ccco3)C=CC3C(=O)N(c4ccccc4)C(=O)C32)cc1 (stereo not drawn) = label 0
6) O=C1NCC(=O)N2[C@@H]1C[C@@H](C(=O)O)[C@H]2c1ccc(O)cc1 = label 0
7) [N-]=[N+]=NCc1ccccc1C[C@@]1(C(=O)NCCN2CCOCC2)N=C(c2ccc(OCCCO)cc2)O[C@@H]1c1ccccc1N=[N+]=[N-] = label 0
8) [N-]=[N+]=NCc1ccccc1C[C@@]1(C(=O)N2CCCCC2)N=C(c2ccc(OCCCO)cc2)O[C@@H]1c1ccccc1N=[N+]=[N-] = label 1
9) C[C@H]1ON(c2ccc(C(=O)OC(C)(C)C)cc2)[C@@H](c2ccc(O)cc2)[C@@H]1C(=O)N1C(=O)OC[C@@H]1c1ccccc1 = label 0
10) COc1ccc(C(O)C2C=CC3C(=O)N(C)C(=O)C3N2N2CCCCC2)cc1 (stereo not drawn) = label 0
11) CCN(CC)c1ccc(N2CC=CC34O[C@@H]5/C=C\CCC(C)OC(=O)C5[C@H]3C(=O)N(CCO)[C@@H]4C2=O)cc1 (stereo partly drawn) = label 1
12) COc1ccc([Si](C)(C)[C@H]2[C@H](CCn3cc(CCO)nn3)O[C@@]3(C(=O)N(Cc4ccc(N5C(=O)c6cccc7cccc5c67)cc4)c4ccccc43)[C@@H]2C)cc1 = label 0
13) C=C(COC)/C(=C/C[C@@H](OC(=O)c1ccncc1)c1ccc(OCCO)cc1)c1cnc2ccccc2c1 = label 1
14) C=CCOC(=O)[C@H]1[C@@H]2C(=O)O[C@@H](c3ccccc3)[C@@H](c3ccccc3)N2[C@@H](c2ccc(OCCOC(=O)[C@H]3C[C@H]4C(=O)N[C@@H](CCCC[N+](C)(C)C)C(=O)N4[C@H]3c3cccc(OCCO)c3)cc2)[C@]12C(=O)Nc1ccc(I)cc12 = label 0
15) COc1c(C)cc(-c2cc3c(c(Cc4ccccc4)n2)[Si](C(C)C)(C(C)C)OC3)cc1C = label 1
16) COC(=O)c1c(CC[C@@H](CO)NC(=O)N[C@H](Cn2cc(-c3ccccc3C)nn2)C(C)C)oc(C(C)=O)c1C(=O)OC = label 1
17) CCOC(=O)C1=CC[C@@H](c2cc(Cl)ccc2Cl)N(S(=O)(=O)c2ccc(C)cc2)[C@H]1c1ccc(OC)cc1 = label 0
18) COc1ccc([Si](C)(C)[C@H]2[C@H](CCn3cc([C@H](O)c4ccccc4)nn3)O[C@@]3(C(=O)N(Cc4ccc(N5CCC5=O)cc4)c4ccccc43)[C@@H]2C)cc1 = label 0
19) CC(C)N1CC=CC23O[C@@H]4C=CCCOC(=O)C4[C@H]2C(=O)N(CCO)[C@@H]3C1=O (stereo partly drawn) = label 0
20) CC(C)OC(=O)CC(=O)CC(O)c1cccc(C#N)c1 (stereo not drawn) = label 0
21) CC[C@@H]1[C@H]2C3C(=O)N(CC)C(=O)C3CC(=O)[C@H]2[C@H](c2ccc(C)cc2)N1S(=O)(=O)c1ccc(C)cc1 (stereo partly drawn) = label 0
22) COC(=O)[C@@]1(Cc2ccccc2)[C@H]2c3cc(C(=O)N4CCCC4)n(Cc4ccsc4Br)c3C[C@H]2CN1C(=O)c1ccccc1 = label 1
23) COCCCNC(=O)[C@@]1(Sc2ccc(C)cc2)CC(=O)N(C2Cc3ccccc3C2)[C@@H]1c1ccc(CO)cc1I = label 1
24) O=C1NC(=O)C2C1C=CC(C(O)c1ccc3c(c1)OCO3)N2Nc1ccccn1 (stereo not drawn) = label 1
25) CON(C)C(=O)C=C1C[C@@H](c2cccc(Cl)c2)O[C@@H](c2cccc(Cl)c2)O1 = label 0
26) CN(C)CCCCNC(=O)[C@H]1C[C@H]2C(=O)N[C@@H](CCCCN(C)C)C(=O)N2[C@H]1c1cccc(OCCO)c1 = label 1
27) COCCCNC(=O)[C@]1(Cc2ccccc2CN=[N+]=[N-])N=C(c2ccc(OCCCO)cc2)O[C@@H]1c1ccccc1 = label 0
28) C=CC[C@H](OC(=O)Nc1ccc(OC)cc1)c1ccc(O)c2ccccc12 = label 1

Cited source for all entries: PubChem BioAssay
